- measurementTarget: HLA-A*02:01
- methodDescription: IEDB peptide-MHC binding, purified MHC/direct/fluorescence; filed as Kd, often an IC50 or EC50 that approximates it; bounds were set here for any values at or beyond the usual limits of such assays
- appliedConditions: source organism: Influenza A virus (A/Ck/HK/2133.1/2003(H5N1))
pKd: −log10 of the molar value.
endpointName: pKd

INSERT INTO measurements (residuestring, measurementtarget, endpointname, valuereported) VALUES
  ('SADPLASLL', 'HLA-A*02:01', 'pKd', '≤ 4.70');

###

- measurementTarget: HLA-A*01:01
- methodDescription: IEDB peptide-MHC binding, purified MHC/competitive/fluorescence; filed as Kd, often an IC50 or EC50 that approximates it; bounds were set here for any values at or beyond the usual limits of such assays
- appliedConditions: source organism: Escherichia coli
pKd: −log10 of the molar value.
endpointName: pKd

INSERT INTO assay_data (residuestring, measurementtarget, valuereported) VALUES
  ('ITDYIVGYY', 'HLA-A*01:01', 8.52);

The reported numbers originate from the Immune Epitope Database (IEDB).
